Values were extracted from patent US9266872B2.

target: TMPRSS4 serine protease (Homo sapiens, UniProt Q9NRS4); construct: TMPRSS4 serine protease domain (205th Val˜437th Leu) was cloned in pET21b/NdeI-XhoI; inferred from pET21b XhoI cloning and Ni-NTA purification) (C); made in house; host or cells: E. coli BL21 (DE3); assay: Inhibitory effect on TMPRSS4 serine protease activity using peptide substrate; format: biochemical; conditions: 10 uM compound; kallikrein peptide substrate 100 μM; DMSO negative control; read-out: Intracellular protease activity Inhibition % 10 uM
Sequence (Q9NRS4 205-437): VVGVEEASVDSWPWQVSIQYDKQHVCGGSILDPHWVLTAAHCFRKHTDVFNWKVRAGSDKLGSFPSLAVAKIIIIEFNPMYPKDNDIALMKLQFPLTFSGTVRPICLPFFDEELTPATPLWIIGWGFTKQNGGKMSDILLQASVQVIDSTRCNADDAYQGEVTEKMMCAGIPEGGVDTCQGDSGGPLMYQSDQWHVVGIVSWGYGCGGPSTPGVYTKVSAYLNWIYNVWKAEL
In this section we review reported inhibition at 10 µM values for a set of molecules.
Write down the numeric answer in % and omit the unit.

Before answering, review these 5 worked examples.
O=C(Nc1cc(Cl)c(Cl)c(Cl)c1)c1cc(Cl)ccc1O :: 6
O=C(Nc1ccc(C(F)(F)F)cc1)c1cc(Cl)ccc1O :: 22
O=C(Nc1cc(C(F)(F)F)cc(C(F)(F)F)c1Cl)c1cc(Cl)ccc1O :: 43
O=C(Nc1cc(C(F)(F)F)cc(C(F)(F)F)c1)c1cc(-c2ccc(F)cc2F)ccc1O :: 5
O=C(Nc1cc(Cl)cc(Cl)c1)c1cc(Cl)ccc1O :: 15

Now take the following molecule into account.
// query Item `O=C(Nc1cc(C(F)(F)F)ccc1Br)c1cc(Cl)ccc1O` with TMPRSS4 serine protease (Homo sapiens, UniProt Q9NRS4) - inhibition at 10 µM?
// result 40

----------
target: TMPRSS4 serine protease (Homo sapiens); construct: TMPRSS4 serine protease domain (205th Val˜437th Leu) was cloned in pET21b/NdeI-XhoI; inferred from pET21b XhoI cloning and Ni-NTA purification) (C); made in house; host or cells: E. coli BL21 (DE3); test: Inhibitory effect on TMPRSS4 serine protease activity using peptide substrate; type: biochemical; settings: 10 uM compound; kallikrein peptide substrate 100 μM; DMSO negative control; read-out: Intracellular protease activity Inhibition % 10 uM
REPORTED_PROPERTY: inhibition at 10 µM

Known results for compounds:
O=C(Nc1cc(C(F)(F)F)ccc1C(F)(F)F)c1cc(Cl)ccc1O :: 46%
O=C(Nc1cc(C(F)(F)F)cc(C(F)(F)F)c1)c1cc(Cl)ccc1OCc1ccccc1 :: 0%
O=C(Nc1cc(Br)cc(C(F)(F)F)c1)c1cc(Cl)ccc1O :: 51 to 100%

// query Query: inhibition at 10 µM; subject: `O=C(Nc1ccc(C(F)(F)F)c(C(F)(F)F)c1)c1cc(Cl)ccc1O`
// result 37%

// query Now this one: `O=C(Nc1cccc(C(F)(F)F)c1)c1cc(Cl)ccc1O`
// result 37%

// query Thanks! And `Cn1ccc(NC(=O)c2cc(Cl)ccc2O)n1` ?
// result 14%

----------
Molecular target: TMPRSS4 serine protease (Homo sapiens, UniProt Q9NRS4)
Construct: TMPRSS4 serine protease domain (205th Val˜437th Leu) was cloned in pET21b/NdeI-XhoI; inferred from pET21b XhoI cloning and Ni-NTA purification) (C); made in house; host or cells: E. coli BL21 (DE3)
Assay: Inhibitory effect on TMPRSS4 serine protease activity using peptide substrate
Assay type: biochemical
Settings: 30 uM compound; kallikrein peptide substrate 100 μM; DMSO negative control; read-out: Intracellular protease activity Inhibition % 30 uM
Description: TMPRSS4 serine protease domain (205th Val˜437th Leu) was cloned in pET21b/NdeI-XhoI, which was introduced in E. coli BL21 (DE3). […] The protein activity was evaluated by measuring fluorescence shown during hydrolysis of the peptide. […] Then, fluorescence was measured at 5 minutes interval (excitation 385 nm, emission 455 nm). Then, fluorescence (excitation 385 nm/emission 455 nm) was measured at 5 minutes interval for 150 minutes. […]
REPORTED_PROPERTY: inhibition at 30 µM (%)
Report the value in % with no unit label.

# annotated cases, reported inhibition at 30 µM shown
Cc1csc(NC(=O)c2cc(Cl)ccc2O)n1 :: 0
Cc1cc(C)cc(NC(=O)c2cc(Cl)ccc2O)c1 :: 44
N#Cc1ccc(NC(=O)c2cc(Cl)ccc2O)c(Cl)c1 :: 92

// query Looking for the measured inhibition at 30 µM of `O=C(Nc1cc(C(F)(F)F)cc(C(F)(F)F)c1)c1cc(Cl)ccc1OCc1ccccc1` , can you help?
// result 6

// query `Cc1cc(Cl)cc(C(=O)Nc2cc(C(F)(F)F)cc(C(F)(F)F)c2)c1O` ?
// result 78

// query Ok, now `O=C(Nc1cc(C(F)(F)F)cc(C(F)(F)F)c1)c1cc(Br)ccc1O`
// result 84

// query Similarly, `O=C(Nc1ccc(Cl)cn1)c1cc(Cl)ccc1O` ?
// result 14

// query Next molecule: `O=C(Nc1ccc(Cl)nc1)c1cc(Cl)ccc1O`
// result 6

// query Check `Cc1cc(C)nc(NC(=O)c2cc(Cl)ccc2O)n1` too.
// result 0

// query Please do the same for `CC(=O)Oc1ccc(Cl)cc1C(=O)Nc1cc(C(F)(F)F)cc(C(F)(F)F)c1` as well.
// result 4

// query Same lookup for `O=C(Nc1cccc(C(F)(F)F)c1)c1cc(Cl)ccc1O` , please.
// result 91

// query Let us now turn to `COc1cc(NC(=O)c2cc(Cl)ccc2O)cc(C(F)(F)F)c1`
// result 88

// query Another molecule to check: `O=C(Nc1ccc(C(F)(F)F)cn1)c1cc(Cl)ccc1O`
// result 25

// query Same thing, different molecule: `O=C(Nc1cc(Br)cc(C(F)(F)F)c1)c1cc(Cl)ccc1O`
// result 100

// query Now give it for `O=C(Nc1cc(C(F)(F)F)cc(C(F)(F)F)c1)c1cnc2ccccc2c1O` too.
// result 0

// query Lookup `N#Cc1ccc(NC(=O)c2cc(Cl)ccc2O)cc1`
// result 29

// query And the next one, `O=C(Nc1cc(C(F)(F)F)cc(C(F)(F)F)c1)c1ccc(Cl)cc1O` ?
// result 74

// query Same for `O=C(Nc1ccccn1)c1cc(Cl)ccc1O`
// result 0

----------
target: TMPRSS4 serine protease (Homo sapiens); construct: TMPRSS4 serine protease domain (205th Val˜437th Leu) was cloned in pET21b/NdeI-XhoI; inferred from pET21b XhoI cloning and Ni-NTA purification) (C); made in house; host or cells: E. coli BL21 (DE3); assay: Inhibitory effect on TMPRSS4 serine protease activity using peptide substrate; type: biochemical; details: 10 uM compound; kallikrein peptide substrate 100 μM; DMSO negative control
REPORTED_PROPERTY: Intracellular protease activity Inhibition % 10 uM (%)
Just the number please, in %, no unit attached.

Observe how each entry below is paired with its result.
O=C(Nc1cc(C(F)(F)F)cc(C(F)(F)F)c1)c1cc2ccccc2cc1O :: 58
O=C(Nc1ccc(Cl)c(C(F)(F)F)c1)c1cc(Cl)ccc1O :: 71
COc1c(C(F)(F)F)cc(NC(=O)c2cc(Cl)ccc2O)cc1C(F)(F)F :: 56
O=C(Nc1ccc(C(F)(F)F)cc1[N+](=O)[O-])c1cc(Cl)ccc1O :: 53
O=C(Nc1cc(C(F)(F)F)cc(C(F)(F)F)c1)c1cc(Cl)ccc1O :: 64
Cc1c(C(F)(F)F)cc(NC(=O)c2cc(Cl)ccc2O)cc1C(F)(F)F :: 51
CC1CN(Cc2csc(NC(=O)c3cc(Cl)ccc3O)n2)CC(C)O1 (centres unmarked) :: 85
O=C(Nc1cc(Br)cc(C(F)(F)F)c1)c1cc(Cl)ccc1O :: 64

// query Could you tell me which Intracellular protease activity Inhibition % 10 uM is on file for `O=C(Nc1cc(C(F)(F)F)ccc1Cl)c1cc(Cl)ccc1O` ?
// result 64

// query Note, next up: O=C(Nc1ccc(Br)c(C(F)(F)F)c1)c1cc(Cl)ccc1O [Example 16]
// result 80

// query What about this compound? `Cc1nc(NC(=O)c2cc(Cl)ccc2O)n[nH]1`
// result 58

// query Now give it for `O=C(Nc1ccc(F)c(C(F)(F)F)c1)c1cc(Cl)ccc1O` too.
// result 64

// query Moving on to the next compound: `O=C(Nc1nc2c(s1)CCCC2)c1cc(Cl)ccc1O`
// result 77

// query And the next one, `Cc1cnc(NC(=O)c2cc(Cl)ccc2O)s1` ?
// result 66

----------
molecular target: TMPRSS4 serine protease (Homo sapiens); construct: TMPRSS4 serine protease domain (205th Val˜437th Leu) was cloned in pET21b/NdeI-XhoI; inferred from pET21b XhoI cloning and Ni-NTA purification) (C); made in house; host or cells: E. coli BL21 (DE3); assay: Inhibitory effect on TMPRSS4 serine protease activity using peptide substrate; type: biochemical; details: 30 uM compound; kallikrein peptide substrate 100 μM; DMSO negative control; read-out: Intracellular protease activity Inhibition % 30 uM
# key: entry, value: inhibition at 30 µM

Worked examples, 4 molecules total:
N#Cc1ccc(NC(=O)c2cc(Cl)ccc2O)nc1 :: 47 to 100%
O=C(Nc1ccc(C(F)(F)F)c(C(F)(F)F)c1)c1cc(Cl)ccc1O :: 59%
O=C(Nc1cc(C(F)(F)F)ccc1F)c1cc(Cl)ccc1O :: 100%
O=C(Nc1cc(C(F)(F)F)cc(C(F)(F)F)c1)c1cc([N+](=O)[O-])ccc1O :: 78%

Now let's try a different one.
// query I would be grateful if you could share the reported inhibition at 30 µM for `O=C(Nc1ccc(C(F)(F)F)cc1)c1cc(Cl)ccc1O` .
// result 100%
